Assay: Prodrug conversion in 0.2 M phosphate buffer solution assessed as benzofibrate formation at pH 7.4 at 40 degC after 4 hrs by HPLC analysis
Conditions: pH 7.4, 4 h
Here, each record is paired with measured Drug metabolism data.
Report the figure in µg/mL without appending any unit label.

See these solved cases before continuing.
Compound: CC(=O)OC(C)OC(=O)C(C)(C)Oc1ccc(CCNC(=O)c2ccc(Cl)cc2)cc1 (stereo not given)
Unit label: µg/mL
Drug metabolism: 0.9
--
Compound: CC(C)(C)C(=O)OCOC(=O)C(C)(C)Oc1ccc(CCNC(=O)c2ccc(Cl)cc2)cc1
Unit label: µg/mL
Drug metabolism: 2.2
--
Compound: CC(C)(Oc1ccc(CCNC(=O)c2ccc(Cl)cc2)cc1)C(=O)OCCN1CCOCC1
Unit label: µg/mL
Drug metabolism: 6.2
--
Compound: Cc1oc(=O)oc1COC(=O)C(C)(C)Oc1ccc(CCNC(=O)c2ccc(Cl)cc2)cc1
Unit label: µg/mL
Drug metabolism: 0.5

Now turn to the next compound.
The compound "CC(=O)OCCOC(=O)C(C)(C)Oc1ccc(CCNC(=O)c2ccc(Cl)cc2)cc1" showed Drug metabolism equal to 1.8

###

Test: Prodrug conversion in 0.1 M boric acid buffer solution assessed as benzofibrate formation at pH 9.0 at 40 degC after 4 hrs by HPLC analysis
Settings: pH 9, 4 h
For each record, check the reported Drug metabolism: if it is below 2 µg/mL write True, else write False.

Worked examples follow.
Compound: CC(C)(C)C(=O)OCOC(=O)C(C)(C)Oc1ccc(CCNC(=O)c2ccc(Cl)cc2)cc1
Cat: True
--
Compound: CC(=O)OCCOC(=O)C(C)(C)Oc1ccc(CCNC(=O)c2ccc(Cl)cc2)cc1
Cat: False
--
Compound: CC(=O)OC(C)OC(=O)C(C)(C)Oc1ccc(CCNC(=O)c2ccc(Cl)cc2)cc1 (stereo not given)
Cat: False
--
Compound: CC(C)(Oc1ccc(CCNC(=O)c2ccc(Cl)cc2)cc1)C(=O)OCCN1CCOCC1
Cat: False

Now for a further compound.
Ask: Does the reported Drug metabolism of the following compound sit strictly below 2 µg/mL? "Cc1oc(=O)oc1COC(=O)C(C)(C)Oc1ccc(CCNC(=O)c2ccc(Cl)cc2)cc1"
Result: False
